- Assay Notes: Inhibition of Mycobacterium tuberculosis CYP121A1 mediated cYY conversion to mycocyclosin assessed as fold change in cYY level at 100 uM incubated for 2 hrs in the presence of NADPH by LC-MS activity assay relative to clotrimazole
- Format: ADME
- Test Settings: recombinant enzyme
Experimental Readout: fold change (FC)
One number for each entry.

// below: answered compounds
# Smiles Text, fold change (FC)
measured = [
    ("c1ccc2c(CCc3ccncc3)c[nH]c2c1", 1.1),
    ("Fc1ccc2[nH]cc(CCc3ccncc3)c2c1", 3.5),
    ("c1ccc2c(CCc3ccnc(N4CCOCC4)n3)c[nH]c2c1", 4.7),
    ("Cn1cc(CCc2ccnc(N3CCOCC3)n2)c2ccccc21", 2.1),
]

List fold change (FC) for every entry below, keeping the order given.
1. c1ccc2c(CCc3ccnc(N4CCCOCC4)n3)c[nH]c2c1
2. Brc1ccc2[nH]cc(CCc3ccncc3)c2c1
3. c1ccc2c(CCc3ccncn3)c[nH]c2c1
4. FC(F)(F)Oc1ccc2[nH]cc(CCc3ccncc3)c2c1
5. c1ccc2c(CCc3nc4c(c(N5CCOCC5)n3)CNC4)c[nH]c2c1
6. Fc1ccc2[nH]cc(CCc3ccnc(N4CCOCC4)n3)c2c1

Result:
4.7
1.3
1.8
1.2
4.1
10.6

Parameters: items (list). Returns: fold change (FC) for each item.
1. COC1CN(c2nccc(CCc3c[nH]c4ccc(Br)cc34)n2)C1
2. c1ccc2c(c1)OCCN2c1nccc(CCc2c[nH]c3ccccc23)n1

Result:
1. 1.8
2. 0.1

----------
- Assay Notes: Inhibition of Mycobacterium tuberculosis CYP121A1 mediated cYY conversion to mycocyclosin assessed as fold change in cYY level at 100 uM incubated for 2 hrs in the presence of NADPH by LC-MS activity assay relative to clotrimazole
- Assay type: ADME
- Test Settings: recombinant enzyme
Please provide measured fold change (FC) for the entries that follow.
One number for each entry.

# Smiles Text, fold change (FC)
data = [
    ("COc1ccc2[nH]cc(CCc3ccncc3)c2c1", 1),
    ("Brc1ccc2[nH]cc(CCc3ccnc(N4CCOCC4)n3)c2c1", 3.8),
    ("Oc1ccc2[nH]cc(CCc3ccnc(N4CCOCC4)n3)c2c1", 3.5),
    ("Clc1ccc2[nH]cc(CCc3ccncc3)c2c1", 2.3),
    ("FC(F)(F)Oc1ccc2[nH]cc(CCc3ccnc(N4CCOCC4)n3)c2c1", 1.1),
]

We next turn to a different molecule, shown below.
Task: For the molecule shown here, "Ic1ccc2[nH]cc(CCc3ccncc3)c2c1" , give the reported fold change (FC).
Result: 1.9

----------
- Assay Notes: Binding affinity to Mycobacterium tuberculosis CYP121A1 expressed in Escherichia coli HMS174 (DE3) assessed as thermal stability by measuring increase in melting temperature at 1mM by SYPRO orange dye based differential scanning fluorimetry assay
- Test Settings: 1000 µM
Experimental Readout: deltaTm (°C)
Answers are plain numbers, in °C.

# Smiles Text, deltaTm, °C
data = [
    ("c1ccc2c(CCc3nc4c(c(N5CCOCC5)n3)CNC4)c[nH]c2c1", 3.5),
    ("c1ccc2c(CCc3ccncn3)c[nH]c2c1", 3.5),
]

Look at each compound and report its deltaTm.
1. Oc1ccc2[nH]cc(CCc3ccnc(N4CCOCC4)n3)c2c1
2. c1ccc2c(CCc3nc4c(c(N5CC6CCC(C5)O6)n3)CNC4)c[nH]c2c1
3. Nc1[nH]nc(-c2ccc(O)cc2)c1-c1ccc(O)cc1
4. c1ccc2c(CCc3nc4c(c(N5CCOCC5)n3)CCNC4)c[nH]c2c1

Result:
0.5
2.4
1
1
